Provenance of the data: patent US6737383B1

# Tested on: sugar beet
# methodDescription: Test B pre/postemergence sugar beet
# Assay type: in vivo, Beta vulgaris
# assaySetup: Preemergence, Rate 250 g/ha; scale of 0 to 10 where 0 is no effect and 10 is complete control
What Sugarbeets plant response rating was measured for each of the following?
Answer with a bare number; do not write a unit.

QUERY: // Sugarbeets plant response rating lookup, key: CC(C)N(C(=O)n1oc(=O)n(CC(=O)C(C)(C)C)c1=O)c1ccc(F)cc1 [Compound 216]
RESULT: 0

QUERY: // Sugarbeets plant response rating lookup, key: CC(C)N(C(=O)n1oc(=O)n(-c2ccsc2)c1=O)c1ccc(F)cc1 [Compound 272]
RESULT: 0

QUERY: // Sugarbeets plant response rating lookup, key: CON=C(Cn1c(=O)on(C(=O)N(c2ccc(F)cc2)C(C)C)c1=O)C(F)(F)F [Compound 227]
RESULT: 6

QUERY: // Sugarbeets plant response rating lookup, key: CCOC(=O)C(C)N(C(=O)n1oc(=O)n(CC)c1=O)c1ccc(F)cc1 (stereo not shown) [Compound 248]
RESULT: 0

====

# Tested on: surinam grass
# methodDescription: Test B pre/postemergence surinam grass
# Type: in vivo, Brachiaria decumbens
# assaySetup: Preemergence, Rate 500 g/ha; scale 0 (no effect) to 10 (complete control)
measureName: B. signalgrass plant response rating
Answer with a bare number; do not write a unit.

QUERY: // B. signalgrass plant response rating lookup, key: CC(C)N(C(=O)n1oc(=O)n(-c2ccccc2C(F)(F)F)c1=O)c1ccc(F)cc1 [Compound 15]
RESULT: 0

QUERY: // B. signalgrass plant response rating lookup, key: CC(C)N(C(=O)n1oc(=O)n(-c2ccccc2)c1=O)c1ccc(F)cc1 [Compound 38]
RESULT: 8

QUERY: // B. signalgrass plant response rating lookup, key: CCN(Cc1ccccc1)C(=O)n1oc(=O)n(-c2c(C)cccc2C)c1=O [Compound 70]
RESULT: 0

QUERY: // B. signalgrass plant response rating lookup, key: CC(C)N(C(=O)n1oc(=O)n(-c2cnn(C)c2Cl)c1=O)c1ccc(F)cc1 [Compound 97]
RESULT: 4

QUERY: // B. signalgrass plant response rating lookup, key: Cc1cccc(C(C)C)c1-n1c(=O)on(C(=O)N(c2ccc(Cl)cc2)C(C)C)c1=O [Compound 64]
RESULT: 0

QUERY: // B. signalgrass plant response rating lookup, key: Cc1cc(C)c(-n2c(=O)on(C(=O)N(c3ccc(Cl)cc3)C(C)C)c2=O)c(C)c1 [Compound 61]
RESULT: 5

QUERY: // B. signalgrass plant response rating lookup, key: CC(C)N(C(=O)n1oc(=O)n(-c2c(Cl)cccc2Cl)c1=O)c1ccc(F)cc1 [Compound 19]
RESULT: 2

====

# System: giant foxtail
# methodDescription: Test B pre/postemergence giant foxtail
# Type: in vivo, Setaria faberii
# assaySetup: Rate 500 g/ha, Postemergence; scale 0 to 10, 0 no effect, 10 complete control
What Giant foxtail plant response rating was measured for each of the following?

QUERY: // Giant foxtail plant response rating lookup, key: CC(C)=CCCC(C)=CCn1c(=O)on(C(=O)N(c2ccc(F)cc2)C(C)C)c1=O [Compound 262]
RESULT: 0

QUERY: // Giant foxtail plant response rating lookup, key: CCOC(=O)C(C)N(C(=O)n1oc(=O)n(CC)c1=O)c1ccc(F)cc1 (stereo not shown) [Compound 248]
RESULT: 0

QUERY: // Giant foxtail plant response rating lookup, key: CC(C)N(C(=O)n1oc(=O)n([C@H](C)c2ccccc2)c1=O)c1ccc(F)cc1F [Compound 238]
RESULT: 2

QUERY: // Giant foxtail plant response rating lookup, key: Cc1cccc(C(C)C)c1-n1c(=O)on(C(=O)N(c2ccc(F)cc2)C(C)C)c1=O [Compound 65]
RESULT: 0
